Target: UniProt Q06187
Conditions: read-out: BTK Inhibition
pIC50: −log10 of the molar value.
Can you tell me pIC50 for the items I'm about to list?

{"compoundStructure": "C=CC(=O)N1CC[C@@H](c2nc(-c3ccc(Oc4cccc(OC)c4F)cc3)c3cncc(OC4CCC4)n23)C1", "pIC50": "> 8.00"}
{"compoundStructure": "C=CC(=O)N1CC[C@@H](c2nc(-c3ccc(C(=O)Nc4ccccn4)cc3)c3c(C)ncc(OCC)n23)C1", "pIC50": "> 8.00"}
{"compoundStructure": "C=CC(=O)N1CCCC[C@H]1c1nc(-c2ccc(C(=O)Nc3ccccn3)cc2)c2c(C(F)(F)F)nccn12", "pIC50": "< 5.00"}
{"compoundStructure": "C=CC(=O)N1CC[C@@H](c2nc(-c3ccc(Oc4cccc(OC)c4F)cc3)c3cnccn23)C1", "pIC50": "> 8.00"}
{"compoundStructure": "CN(C)C(=O)N1CCCC[C@H]1c1nc(-c2ccc(C(=O)Nc3cc(C(F)(F)F)ccn3)cc2)c2c(C(F)(F)F)nccn12", "pIC50": "< 5.00"}

Below are some molecules; for each one, tell me its pIC50.
1. C=CC(=O)N1CCC[C@H]1c1nc(-c2ccc(Oc3cccc(F)c3F)cc2)c2cnccn12
2. C=CC(=O)N1CCC[C@H]1c1nc(-c2ccc(Oc3cccc(OC)c3F)cc2)c2cncc(OC)n12
3. C=CC(=O)N1CCC[C@H]1c1nc(-c2ccc(Oc3cccc(OC)c3)cc2)c2cnccn12

> 8.00
> 8.00
> 8.00

* * *

Can you tell me pIC50 for the items I'm about to list?
Biological target: BTK (Homo sapiens (Human), UniProt Q06187)
Sequence (Q06187 whole entry, looked up, species assumed): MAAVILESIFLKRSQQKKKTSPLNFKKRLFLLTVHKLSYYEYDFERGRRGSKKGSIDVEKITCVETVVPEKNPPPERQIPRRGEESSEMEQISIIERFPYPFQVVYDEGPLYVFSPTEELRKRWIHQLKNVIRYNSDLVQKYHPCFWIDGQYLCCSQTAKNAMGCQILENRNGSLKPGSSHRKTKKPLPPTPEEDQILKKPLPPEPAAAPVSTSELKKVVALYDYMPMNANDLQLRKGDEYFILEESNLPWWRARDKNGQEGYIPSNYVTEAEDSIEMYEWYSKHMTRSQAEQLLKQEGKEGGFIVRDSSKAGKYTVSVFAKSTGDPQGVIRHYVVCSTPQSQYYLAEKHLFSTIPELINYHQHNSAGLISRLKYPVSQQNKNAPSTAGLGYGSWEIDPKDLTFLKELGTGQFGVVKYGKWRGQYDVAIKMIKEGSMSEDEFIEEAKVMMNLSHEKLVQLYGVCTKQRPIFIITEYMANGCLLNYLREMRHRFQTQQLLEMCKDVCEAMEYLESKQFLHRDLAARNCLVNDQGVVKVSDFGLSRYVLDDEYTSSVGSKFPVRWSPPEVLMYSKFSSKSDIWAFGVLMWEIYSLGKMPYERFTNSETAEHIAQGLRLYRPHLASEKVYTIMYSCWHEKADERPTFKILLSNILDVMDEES
Assay: biochemical
pIC50: −log10 of the molar value.

These recorded examples may help you get a feel for the data.
{"compoundStructure": "C=CC(=O)N1CCCC[C@H]1c1nc(-c2ccc(OCc3cccc(F)c3)cc2)c2c(C)nccn12", "pIC50": "7.00 to 8.00"}
{"compoundStructure": "C=CC(=O)N1CCC[C@H]1c1nc(-c2ccc(Oc3ccccc3)nc2)c2cnccn12", "pIC50": "6.00 to 7.00"}
{"compoundStructure": "C=CC(=O)N1CCCC[C@H]1c1nc(-c2ccc(Oc3cccc(OC)c3F)cc2)c2c(C(F)(F)F)nccn12", "pIC50": "5.00 to 6.00"}

Below are some molecules; for each one, tell me its pIC50.
1. C=CC(=O)N1CC[C@@H](c2nc(-c3ccc(Oc4cccc(OC)c4F)cc3)c3c(O)nccn23)C1
2. CC#CN1CCC[C@H]1c1nc(-c2ccc(C(=O)Nc3cc(C(F)(F)F)ccn3)cc2)c2c(CF)nccn12
3. C=CC(=O)N1CCCC[C@H]1c1nc(-c2ccc(C(=O)Nc3ccccn3)cc2)c2cncc(C)n12

1. 6.00 to 7.00
2. 6.00 to 7.00
3. 6.00 to 7.00

* * *

Biological target: BTK (Homo sapiens (Human), UniProt Q06187)
Test: biochemical
assayEndpoint: IC50

These recorded examples may help you get a feel for the data.
{"compound": "CC#CC(=O)N1CCC[C@H]1c1nc(-c2ccc(OCc3ccc(F)c(F)c3)cc2)c2cnccn12", "IC50": "1000 to 10000 nM"}
{"compound": "CC#CC(=O)N1CCC[C@H]1c1nc(-c2ccc(Oc3ccccc3OC)cc2)c2cnccn12", "IC50": "1000 to 10000 nM"}
{"compound": "C=CC(=O)N1CCC[C@H]1c1nc(-c2ccc(Oc3cccc(OC)c3F)cc2)c2cnc(C)cn12", "IC50": "10 to 100 nM"}

Below are some compounds; for each one, tell me its IC50.
1. CC#CC(=O)N1CCC[C@@H](c2nc(-c3ccc(Oc4cccc(OC)c4F)cc3)c3c(C)ncc(C)n23)C1
2. COc1cccc(Oc2ccc(-c3nc([C@@H]4CCN(C(=O)/C(C#N)=C/C(C)(C)C)C4)n4ccnc(C)c34)cc2)c1F
3. CC#CC(=O)N1CCC[C@@H](c2nc(-c3ccc(Oc4cccc(OC)c4F)cc3)c3cncc(C)n23)C1
4. CC#CC(=O)N1CCC[C@H]1c1nc(-c2ccc(Oc3cccc(OC)c3F)cc2)c2c(C)nccn12
5. CC#CN1CCC[C@H]1c1nc(-c2ccc(C(=O)Nc3cc(C(F)(F)F)ccn3)cc2)c2c(CO)nccn12
6. CC#CC(=O)N1CC[C@@H](c2nc(-c3ccc(Oc4cccc(OC)c4F)cc3)c3cncc(C)n23)C1

1. 100 to 1000 nM
2. 10 to 100 nM
3. 100 to 1000 nM
4. 10 to 100 nM
5. 100 to 1000 nM
6. 10 to 100 nM
